The measured values listed here are drawn from the supplement of paper PMC6555819.

Test system: RARg:RXRa (NR concentration 270 nM, RXRa partner concentration 90 nM)
Assay: PBM binding z-score (relative to random genomic background probes); higher = stronger binding; sequences stand for … in GC…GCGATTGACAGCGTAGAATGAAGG
Overview of recorded PBM binding z-score for various sequences
readout name: PBM binding z-score

1) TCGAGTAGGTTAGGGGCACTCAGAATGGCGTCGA = 0.322
2) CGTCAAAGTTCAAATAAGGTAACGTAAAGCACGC = 5.64
3) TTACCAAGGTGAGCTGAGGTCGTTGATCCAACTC = 1.24
4) TCATAGAGGTAATACAGGTGAAAGTCGGCATCTA = 0.441
5) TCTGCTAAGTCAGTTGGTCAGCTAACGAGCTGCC = -0.611
6) CCTTACGGGGCACGAGGTTATAGCACGACGAGCG = 2.07
7) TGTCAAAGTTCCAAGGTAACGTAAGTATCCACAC = 0.298
8) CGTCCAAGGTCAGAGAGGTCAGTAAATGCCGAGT = 5.95
9) CCGACTGGGGCATAAGGTTACAATAAGCCAGCCC = 1.66
10) GCTGCTAGGTCGGGTTGGTCAGCTAACGGGTACG = 0.215
11) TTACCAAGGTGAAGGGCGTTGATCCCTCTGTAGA = 0.413
12) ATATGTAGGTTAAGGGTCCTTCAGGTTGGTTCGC = 1.03
13) CCTACTGGGCCATTCAGAGCTCATTGATCATATG = -0.434
14) CCGACTGGGGCATAAGGTTACCATAAGCCAGCCC = 1.62
15) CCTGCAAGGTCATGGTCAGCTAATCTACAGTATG = 6.01
16) GCTTACCGGTCAAAGGTTATAGCATGAATAGAAT = 5.63
17) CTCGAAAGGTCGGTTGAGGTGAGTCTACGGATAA = 2.73
18) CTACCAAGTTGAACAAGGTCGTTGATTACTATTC = 0.927
19) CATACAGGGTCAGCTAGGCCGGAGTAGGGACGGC = 4.28
20) TCTTGTAGATAAAAGGTTAAGAAAGCCGAAGCCT = 1.43
21) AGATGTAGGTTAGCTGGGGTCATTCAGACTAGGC = 3.96
22) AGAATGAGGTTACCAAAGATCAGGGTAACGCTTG = 2.15
23) TCTGCTAGGTCCGTTGGTCAGCTAACGAGCTGCC = -0.454
24) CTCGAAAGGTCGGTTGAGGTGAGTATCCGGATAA = 2.82
25) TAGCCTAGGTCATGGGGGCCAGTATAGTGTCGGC = 4.91
26) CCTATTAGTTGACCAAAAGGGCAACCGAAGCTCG = 2.31
27) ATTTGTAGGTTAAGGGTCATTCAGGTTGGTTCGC = 5.34
28) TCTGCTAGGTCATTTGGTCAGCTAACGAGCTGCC = 3.84
29) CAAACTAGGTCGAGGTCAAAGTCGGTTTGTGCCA = 5.24
30) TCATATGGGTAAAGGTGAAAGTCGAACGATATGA = 1.41
31) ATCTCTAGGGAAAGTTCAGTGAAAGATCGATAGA = 2.01
32) CAAAGTAGGTCAAAGGTCAAAGTCGAGCCAACCA = 8.87
33) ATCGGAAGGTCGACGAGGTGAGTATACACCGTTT = 2.32
34) CCTTACGGGTCACTCCAGGTTATGGCATCGGAGT = 4.46
35) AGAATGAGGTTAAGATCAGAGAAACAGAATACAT = 2.05
36) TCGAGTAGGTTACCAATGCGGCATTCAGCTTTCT = 0.0889
37) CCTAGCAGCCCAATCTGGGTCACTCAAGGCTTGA = 0.615
38) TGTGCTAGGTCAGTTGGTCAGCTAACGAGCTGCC = 2.6
39) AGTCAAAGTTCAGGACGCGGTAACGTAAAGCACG = 4.4
40) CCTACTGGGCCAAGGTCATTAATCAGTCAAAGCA = 3.21
41) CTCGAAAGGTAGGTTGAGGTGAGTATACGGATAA = 0.129
42) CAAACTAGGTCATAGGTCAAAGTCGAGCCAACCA = 6.56
43) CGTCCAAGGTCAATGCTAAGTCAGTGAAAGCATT = 5.54
44) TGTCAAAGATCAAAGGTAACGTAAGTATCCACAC = 1.26
